# TESTED ON: T1, human SIRPβ1 isoform 1 on cells (human, UniProt O00241 30-398)
# T1 construct: On CHO cells (low level), on BWZ/BW5147.G.1.4 cells (reporter cells co-express human DAP12) or on primary human myeloid cells; also called huSIRPβ1; BWZ-huSIRPβ1
# T1 sequence (O00241 30-398): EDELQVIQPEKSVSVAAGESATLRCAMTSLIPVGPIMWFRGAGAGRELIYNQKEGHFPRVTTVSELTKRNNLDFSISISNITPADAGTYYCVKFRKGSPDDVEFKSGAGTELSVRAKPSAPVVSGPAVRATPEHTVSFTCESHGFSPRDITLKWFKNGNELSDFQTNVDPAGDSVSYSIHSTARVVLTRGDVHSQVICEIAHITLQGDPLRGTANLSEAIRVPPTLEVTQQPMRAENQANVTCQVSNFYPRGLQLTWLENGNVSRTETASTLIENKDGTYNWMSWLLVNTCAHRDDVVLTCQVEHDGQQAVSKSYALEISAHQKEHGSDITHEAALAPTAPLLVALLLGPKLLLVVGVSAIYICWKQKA
# ASSAY NAME: flow cytometry;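 also: antibody binding to cells detected with a PE-labelled secondary antibody, given as mean fluorescence intensity relative to background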
Listing of entries alongside the reported FOB.

BINDER	READOUT UNIT	FOB
SB-2-7 (antibody, V domains shown, IgG) VH: EVQLLESGGGLVQPGGSLRLSCAASGFTFARYGMHWVRQAPGKGLEWVSAISGLAGPTYADSVKGRFTISRDNSKNTLYLQMNSLRAEDTAVYYCARDQTAAAAIWGMDVWGQGTTVTVSS VL: EVVLTQSPGTLSLSPGERATLSCRASQSVSSSYLAWYQQKPGQAPRLLIYGASSRATGIPDRFSGSGSGTDFTLTISRLEPEDFAVYYCQQSSSHPFTFGGGTKVEIK	fold over background	5
SB-1-4 (antibody, V domains shown, IgG) VH: QVQLVESGGGVVQPGGSLRLSCAASGFTFSAYGMNWVRQAPGKGLEWVSAIRASGGATYYADSVKGRFTISRDNSKNTLYLQMNSLRAEDTAVYYCAKDFTEVVGWLGMDVWGQGTTVTVSS VL: EIVMTQSPGTLSLSPGERATLSCRASQSVSSSYLAWYQQKPGQAPRLLIYGASSRATGIPDRFSGSGSGTDFTLTISRLEPEDFAVYYCQLLGSSPRTFGGGTKVEIK	fold over background	3
SB-2-8 (antibody, V domains shown, IgG) VH: QVQLVESGGGVVQPGRSLRLSCAASGFTFLDYGMHWVRQAPGKGLEWVSAISAFAGSTYADSVKGRFTISRDNSKNTLYLQMNSLRAEDTAVYYCARDQTAAAAIWGMDVWGQGTTVTVSS VL: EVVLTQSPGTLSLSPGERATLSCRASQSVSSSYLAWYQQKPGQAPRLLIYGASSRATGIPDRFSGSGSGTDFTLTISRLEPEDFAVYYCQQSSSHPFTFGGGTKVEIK	fold over background	5
SB-8 (antibody, V domains shown, IgG; also called SB-8 (p)) VH: QVQLQESGPGLVKPSETLSLTCAVSGYSISSGYYWGWIRQPPGKGLEWIGSIYHSGSTYYNPSLKSRVTISVDTSKNQFSLKLSSVTAADTAVYYCARGGAMTPAGMDVWGQGTTVTVSS VL: EIVMTQSPGTLSLSPGERATLSCRASQSVSSSYLAWYQQKPGQAPRLLIYGASNRATGIPDRFSGSGSGTDFTLTISRLEPEDFAVYYCQQVYSSPYTFGGGTKVEIK	fold over background	2
SB-2-10 (antibody, V domains shown, IgG) VH: EVQLLESGGGLVQPGGSLRLSCAASGFTFGSYGMHWVRQAPGKGLEWVSAISGLAGQTYADSVKGRFTISRDNSKNTLYLQMNSLRAEDTAVYYCARDQTAAAAIWGMDVWGQGTTVTVSS VL: EIVLTQSPGTLSLSPGERATLSCRASQSVSSSYLAWYQQKPGQAPRLLIYGASSRATGIPDRFSGSGSGTDFTLTISRLEPEDFAVYYCQQSSSHPFTFGGGTKVEIK	fold over background	4
SB-8-15 (antibody, V domains shown, IgG) VH: QVQLQESGPGLVKPSETLSLTCAVSGYSISAHYYWGWIRQPPGKGLEWIGSIYQSGHTYYNPSLKSRVTISVDTSKNQFSLKLSSVTAADTAVYYCARGGAMTPAGMDVWGQGTTVTVSS VL: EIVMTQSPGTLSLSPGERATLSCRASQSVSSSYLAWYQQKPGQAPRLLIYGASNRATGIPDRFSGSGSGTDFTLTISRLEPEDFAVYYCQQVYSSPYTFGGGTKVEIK	fold over background	7
SB-8-13 (antibody, V domains shown, IgG) VH: QVQLQESGPGLVKPSETLSLTCAVSGYSISAHYYWGWIRQPPGKGLEWIGSIFHSGHTYYNPSLKSRVTISVDTSKNQFSLKLSSVTAADTAVYYCARGGAMTPAGMDVWGQGTTVTVSS VL: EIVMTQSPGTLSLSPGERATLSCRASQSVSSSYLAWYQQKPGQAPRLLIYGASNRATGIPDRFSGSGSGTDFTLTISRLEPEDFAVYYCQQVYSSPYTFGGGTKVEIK	fold over background	7
SB-40-19 (antibody, V domains shown, IgG) VH: QVQLVQSGAEVKKPGASVKVSCKASGYTFTSYYMVWVRQAPGQGLEWMGIINPSSGATNYAQKFQGRVTMTTDTSTSTAYMELRSLRSDDTAVYYCARDTGEYSYSPHGMDVWGQGTTVTVSS VL: EIVLTQSPATLSLSPGERATLSCRASQSVSSYLAWYQQKPGQAPRLLIYDSSNRATGIPARFSGSGSGTDFTLTISSLEPEDFAVYYCQQRDEHPPWTFGGGTKVEIK	fold over background	3
SB-40 (antibody, V domains shown, IgG; also called SB-40 (p)) VH: QVQLVQSGAEVKKPGASVKVSCKASGYTFTSYYMSWVRQAPGQGLEWMGIINPSGGSTSYAQKFQGRVTMTRDTSTSTVYMELSSLRSEDTAVYYCARDTGEYSYSPHGMDVWGQGTTVTVSS VL: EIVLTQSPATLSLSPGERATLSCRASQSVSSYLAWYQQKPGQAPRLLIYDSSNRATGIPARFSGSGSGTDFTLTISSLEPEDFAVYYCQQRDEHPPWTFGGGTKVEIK	fold over background	2
SB-40-20 (antibody, V domains shown, IgG) VH: QVQLVQSGAEVKKPGASVKVSCKASGYTFTSFYISWVRQAPGQGLEWMGIINPSSGHTNYAQKLQGRVTMTTDTSTSTAYMELSSLRSEDTAVYYCARDTGEYSYSPHGMDVWGQGTTVTVSS VL: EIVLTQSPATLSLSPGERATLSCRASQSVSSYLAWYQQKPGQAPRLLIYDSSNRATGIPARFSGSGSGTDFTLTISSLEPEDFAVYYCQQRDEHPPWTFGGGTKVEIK	fold over background	3
